Target: MAGI1_2, Q96QZ7
Sequence (Q96QZ7 456-580): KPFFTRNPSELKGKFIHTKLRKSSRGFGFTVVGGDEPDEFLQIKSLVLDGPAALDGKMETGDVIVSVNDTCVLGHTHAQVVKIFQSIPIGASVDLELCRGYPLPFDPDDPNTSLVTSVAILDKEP
Assay: holdup assay
Parameters: key: below the threshold = too weak to quantify, mostly under pKd 3.1 to 4
Settings: plain residues with an end cap or a label only (N-terminal biotin on a linker: ado-ado)
measured_quantity: pKd

Inquiry: Return value of pKd for input DDEDRLVIEI [ZNF831, Q5JPB2] , no commentary.
Reply text: below the threshold

Inquiry: Give the measured pKd for LPAHHNATRL [SLC34A1, Q06495]
Reply text: 3.8

Inquiry: Answer with reported pKd of VNKSKLLTDV [KCNA1, Q09470]
Reply text: 4.19

Inquiry: Retrieve pKd measured for MLSKQSESAI [FLVCR1, Q9Y5Y0] and print it.
Reply text: below the threshold

***
Inquiry: Please indicate pKd recorded for QMNQTLPVQV [EPHB3, P54753]
Reply text: below the threshold

Inquiry: Identify the reported pKd for the following entry. SAKVRTVTSV [RASL11B, Q9BPW5]
Reply text: 5.51

Inquiry: Return pKd (reported value) for this binder: SGSLKLMTTV [DACT1, Q9NYF0]
Reply text: 5.1

Where these numbers come from: paper PMC9482650
